System: HT29 colon
testMethodNotes: NCI tumour cell line growth inhibition, 48 h
Reported TGI values for the following molecules.

CCOC1Oc2ccc(C)cc2C(=O)/C1=C\Nc1ccc(C(N)=O)cc1 (centres undefined) = > 100 µM
CC/C=C\C[C@@H](O)C/C=C1/C(=O)C=C[C@H]1C/C=C\CCCC(=O)OC = 5.74 µM
CN(C)c1ccc(/C=C2/NC(=S)NC2=O)cc1 = > 100 µM
C[N+](C)(C)CCCSc1nc2ccccc2[nH]1 = > 100 µM
CC(C)(C)/C(=N\Nc1nc2ccccc2[nH]1)c1ccccn1 = > 100 µM

Briefly, TGI measured for O=C1N=C(SC2OC(CO)C(O)C(O)C2O)S/C1=C\c1ccccc1 (centres undefined) : > 100 µM

// sample Cc1ccc(C(=O)NC(C)C)cc1-c1ccc(C(=O)NCC2CC2)cc1 , its TGI was > 25 µM

// recorded TGI for COc1ccc(-c2nc(-c3nc4ccc(Cl)cc4[nH]3)c3ccccn23)cc1 : 14.2 µM

Entry O=C1c2ccccc2C(=O)N1CCc1ncc[nH]1 ; TGI = > 100 µM
